# Target Or System: Tyrosine-protein kinase Lck (Bos taurus)
# Test Details: In vitro inhibition of protein-tyrosine activity of p56lck enzyme in presence of 50 uM ATP
Measure Name: IC50 (µM)
Field: numeric (µM). Do not append units.

// worked examples, IC50 included
INSERT INTO assay_data (chemical_structure, measure_name, unit_text, numeric_result) VALUES
  ('Nc1ccc(-c2cc(=O)c3cc(N)c(O)c(N)c3o2)cc1', 'IC50', 'µM', 754),
  ('Nc1cccc(-c2cc(=O)c3cc(N)c(O)cc3o2)c1', 'IC50', 'µM', 502),
  ('Nc1ccc(-c2cc(=O)c3cc(N)ccc3o2)cc1', 'IC50', 'µM', 103);

// query Look at this molecule and give its reported IC50. Nc1ccc(-c2cc(=O)c3cc(N)cc(N)c3o2)cc1
// result 106

// query Look at this molecule and give its reported IC50. Nc1cccc(-c2cc(=O)c3c(N)c(O)c(N)cc3o2)c1
// result 46

// query Look at this molecule and give its reported IC50. Nc1ccc(-c2cc(=O)c3cc(O)cc(N)c3o2)cc1
// result 117

// query Look at this molecule and give its reported IC50. Nc1ccc(-c2cc(=O)c3cccc(N)c3o2)cc1
// result 123

// query Look at this molecule and give its reported IC50. Nc1ccc(-c2cc(=O)c3ccc(O)c(N)c3o2)cc1
// result 328

// query Look at this molecule and give its reported IC50. Nc1cccc(-c2cc(=O)c3cc(N)ccc3o2)c1
// result 200

---

# Target Or System: Epidermal growth factor receptor (Homo sapiens, UniProt P00533)
# Sequence (P00533 whole entry): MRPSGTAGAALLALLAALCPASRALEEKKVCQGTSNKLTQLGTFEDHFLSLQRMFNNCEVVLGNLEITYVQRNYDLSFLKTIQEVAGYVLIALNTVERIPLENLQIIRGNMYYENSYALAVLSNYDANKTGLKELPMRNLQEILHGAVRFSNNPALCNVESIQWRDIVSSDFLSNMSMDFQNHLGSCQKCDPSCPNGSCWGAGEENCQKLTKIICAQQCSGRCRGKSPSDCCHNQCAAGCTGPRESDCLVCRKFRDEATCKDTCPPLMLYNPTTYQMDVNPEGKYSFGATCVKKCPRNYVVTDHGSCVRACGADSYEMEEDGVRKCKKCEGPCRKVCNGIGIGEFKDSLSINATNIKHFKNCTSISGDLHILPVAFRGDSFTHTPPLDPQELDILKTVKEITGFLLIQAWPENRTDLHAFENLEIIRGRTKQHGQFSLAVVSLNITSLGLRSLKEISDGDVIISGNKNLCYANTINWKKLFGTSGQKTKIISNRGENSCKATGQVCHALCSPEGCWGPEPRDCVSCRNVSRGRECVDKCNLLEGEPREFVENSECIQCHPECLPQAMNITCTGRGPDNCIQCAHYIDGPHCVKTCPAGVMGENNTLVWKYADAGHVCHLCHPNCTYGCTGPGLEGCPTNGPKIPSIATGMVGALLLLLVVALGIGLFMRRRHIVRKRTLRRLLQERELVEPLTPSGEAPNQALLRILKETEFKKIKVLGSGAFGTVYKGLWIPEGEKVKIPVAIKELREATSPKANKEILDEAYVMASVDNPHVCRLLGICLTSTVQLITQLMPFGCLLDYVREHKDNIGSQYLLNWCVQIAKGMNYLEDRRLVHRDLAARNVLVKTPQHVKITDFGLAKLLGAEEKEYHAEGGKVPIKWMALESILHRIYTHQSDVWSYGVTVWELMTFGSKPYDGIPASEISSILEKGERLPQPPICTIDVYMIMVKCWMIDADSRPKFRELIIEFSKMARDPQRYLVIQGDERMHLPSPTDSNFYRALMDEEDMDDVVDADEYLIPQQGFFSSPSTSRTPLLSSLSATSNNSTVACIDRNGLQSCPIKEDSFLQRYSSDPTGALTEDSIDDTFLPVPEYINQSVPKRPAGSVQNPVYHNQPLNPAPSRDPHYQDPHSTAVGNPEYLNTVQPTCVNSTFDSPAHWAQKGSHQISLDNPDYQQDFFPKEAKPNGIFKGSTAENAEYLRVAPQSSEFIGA
# Test Details: Inhibition of in vitro activity of EGFr enzyme from A431 cells in presence of 5 uM ATP
Measure Name: IC50

// worked examples, IC50 included
INSERT INTO assay_data (chemical_structure, target_or_system, measure_name, result) VALUES
  ('Nc1ccc(-c2cc(=O)c3cc(N)ccc3o2)cc1', 'Epidermal growth factor receptor (Homo sapiens, UniProt P00533)', 'IC50', '8.7 µM'),
  ('COc1cc(N)c2oc(-c3ccc(N)cc3)cc(=O)c2c1', 'Epidermal growth factor receptor (Homo sapiens, UniProt P00533)', 'IC50', '> 100 µM'),
  ('Nc1ccc(-c2cc(=O)c3cc(N)cc(N)c3o2)cc1', 'Epidermal growth factor receptor (Homo sapiens, UniProt P00533)', 'IC50', '> 100 µM'),
  ('Nc1ccc(-c2cc(=O)c3cc(O)cc(N)c3o2)cc1', 'Epidermal growth factor receptor (Homo sapiens, UniProt P00533)', 'IC50', '> 100 µM'),
  ('Nc1ccc(-c2cc(=O)c3cccc(N)c3o2)cc1', 'Epidermal growth factor receptor (Homo sapiens, UniProt P00533)', 'IC50', '> 100 µM');

// query Param readout= IC50; system= Epidermal growth factor receptor (Homo sapiens, UniProt P00533); entry= Nc1ccc(-c2cc(=O)c3ccc(O)c(N)c3o2)cc1 ; returns value.
// result > 100 µM

// query Param readout= IC50; system= Epidermal growth factor receptor (Homo sapiens, UniProt P00533); entry= Nc1ccc(-c2cc(=O)c3c(O)ccc(N)c3o2)cc1 ; returns value.
// result > 100 µM

---

Catalogue of IC50 values
# Target Or System: Tyrosine-protein kinase Lck (Bos taurus)
# Test Details: In vitro inhibition of protein-tyrosine activity of p56lck enzyme in presence of 50 uM ATP

// worked examples, IC50 included
INSERT INTO measurements (chemical_structure, target_or_system, result) VALUES
  ('Nc1ccc(-c2cc(=O)c3c(O)c(N)ccc3o2)cc1', 'Tyrosine-protein kinase Lck (Bos taurus)', '223 µM'),
  ('O=c1cc(-c2ccc([N+](=O)[O-])cc2)oc2c([N+](=O)[O-])cccc12', 'Tyrosine-protein kinase Lck (Bos taurus)', '> 2000 µM'),
  ('O=c1cc(-c2ccc([N+](=O)[O-])cc2)oc2c([N+](=O)[O-])cc(O)cc12', 'Tyrosine-protein kinase Lck (Bos taurus)', '> 2000 µM'),
  ('COc1ccc([N+](=O)[O-])c2oc(-c3ccc([N+](=O)[O-])cc3)cc(=O)c12', 'Tyrosine-protein kinase Lck (Bos taurus)', '> 2000 µM'),
  ('Nc1ccc(-c2cc(=O)c3c(N)c(O)c(N)cc3o2)cc1', 'Tyrosine-protein kinase Lck (Bos taurus)', '18 µM');

// query Look at this molecule and give its reported IC50. O=c1cc(-c2ccc([N+](=O)[O-])cc2)oc2c([N+](=O)[O-])c(O)ccc12
// result 1880 µM

// query Look at this molecule and give its reported IC50. O=c1cc(-c2ccc([N+](=O)[O-])cc2)oc2c([N+](=O)[O-])ccc(O)c12
// result > 2000 µM

// query Look at this molecule and give its reported IC50. COc1cc(N)c2oc(-c3ccc(N)cc3)cc(=O)c2c1
// result 382 µM

// query Look at this molecule and give its reported IC50. Nc1ccc(-c2cc(=O)c3cc(N)c(O)cc3o2)cc1
// result 141 µM

// query Look at this molecule and give its reported IC50. Nc1ccc(-c2cc(=O)c3c(O)ccc(N)c3o2)cc1
// result 326 µM

---

Catalogue of pIC50 values
# Target Or System: Epidermal growth factor receptor (Homo sapiens, UniProt P00533)
# Test Details: Inhibition of in vitro activity of EGFr enzyme from A431 cells in presence of 5 uM ATP
# log scale: pIC50 equals minus log10 of the concentration in mol/L

INSERT INTO assay_data (chemical_structure, numeric_result) VALUES
  ('Nc1cccc(-c2cc(=O)c3c(N)c(O)c(N)cc3o2)c1', 5.11);

// query Look at this molecule and give its reported pIC50. Nc1ccc(-c2cc(=O)c3cc(N)c(O)cc3o2)cc1
// result 4.85

---

Catalogue of pIC50 values
# Target Or System: Epidermal growth factor receptor (Homo sapiens)
# Test Details: Inhibition of in vitro activity of EGFr enzyme from A431 cells in presence of 5 uM ATP
pIC50: −log10 of the molar value.

INSERT INTO results (chemical_structure, result) VALUES
  ('Nc1ccc(-c2cc(=O)c3c(O)c(N)ccc3o2)cc1', '< 4.00'),
  ('COc1ccc(N)c2oc(-c3ccc(N)cc3)cc(=O)c12', '< 4.00');

Note: attention shifts to another entry.
// query Look at this molecule and give its reported pIC50. Nc1cccc(-c2cc(=O)c3cc(N)c(O)cc3o2)c1
// result < 4.00
